- System: U2OS
- test: Multiplex assay against U2OS
- Type: toxicity, cell-based
- particulars: human, 24 h, 1 µM, compound concentration 1 uM, replicate 1
Criterion: Population Mitotic Cells (%) meeting or surpassing 20%. Met: 1 (yes). Not met: 0 (no).

Example results:
[[record]]
molecule = "Cc1sc2c(c1C)C(c1ccc(Cl)cc1)=N[C@@H](CC(=O)NCCCCCCCCNC(=O)COc1cccc3c1C(=O)N(C1CCC(=O)NC1=O)C3=O)c1nnc(C)n1-2 (stereo partly drawn)"
subjectoftest = "U2OS"
grouplabel = "0 (no)"

[[record]]
molecule = "Cl.NCCc1ccc(O)c(O)c1 [DOPAMINE HYDROCHLORIDE]"
subjectoftest = "U2OS"
grouplabel = "0 (no)"

[[record]]
molecule = "Cc1noc(-c2ccc(-c3ccc(CC(=O)O)cc3)cc2)c1NC(=O)O[C@H](C)c1ccccc1Cl"
subjectoftest = "U2OS"
grouplabel = "0 (no)"

[[record]]
molecule = "Cl.N=C(N)NC(=O)Cc1c(Cl)cccc1Cl [GUANFACINE HYDROCHLORIDE]"
subjectoftest = "U2OS"
grouplabel = "1 (yes)"

[[record]]
molecule = "CC(C)(C)c1cc(NC(=O)Nc2ccc(-c3cn4c(n3)sc3cc(OCCN5CCOCC5)ccc34)cc2)no1 [QUIZARTINIB]"
subjectoftest = "U2OS"
grouplabel = "1 (yes)"


Has Br.CS(=O)(=O)Nc1c(O)ccc2c1CCCC2C1=NCCN1 (stereo not drawn) a recorded Population Mitotic Cells (%) greater than or equal to 20%?
1 (yes)

Check the entry COc1ccccc1N1CCN(C[C@@H](C(=O)NC(C)(C)C)c2ccccc2)CC1.Cl.Cl : does Population Mitotic Cells (%) equal or exceed 20%?
1 (yes)

Decide: Population Mitotic Cells (%) of CN[C@@H](C)C(=O)N[C@H](C(=O)N1CCC[C@H]1C(=O)Nc1snnc1-c1ccccc1)C1CCCCC1 [GDC-0152] >= 20%?
1 (yes)

====

- System: Fibroblast
- test: Multiplex assay against human fibroblast
- Assay type: toxicity, cell-based
- particulars: 24 h, 10 µM, compound concentration 10 uM, replicate 2
observationType: Population Normal (%)
Supply the numeric figure in %, leaving out any unit text.

See these solved cases before continuing.
[[record]]
compound = "CCc1cc2cc(NS(=O)(=O)c3ccc(C#N)cc3)ccc2n(CC)c1=O"
observationtype = "Population Normal (%)"
quantityunit = "%"
measured = 90

[[record]]
compound = "CCCOc1ccc2[nH]cc(C3=CCNCC3)c2n1.Cl"
observationtype = "Population Normal (%)"
quantityunit = "%"
measured = 97

[[record]]
compound = "Br.CS(=O)(=O)Nc1c(O)ccc2c1CCCC2C1=NCCN1 (stereo not given)"
observationtype = "Population Normal (%)"
quantityunit = "%"
measured = 99

[[record]]
compound = "CCCCC(=O)N(Cc1ccc(-c2ccccc2-c2nnn[nH]2)cc1)[C@H](C(=O)O)C(C)C"
observationtype = "Population Normal (%)"
quantityunit = "%"
measured = 95


Now examine the next entry.
Reported Population Normal (%) for CC(C)(C)c1cc(NC(=O)Nc2ccc(-c3cn4c(n3)sc3cc(OCCN5CCOCC5)ccc34)cc2)no1 [QUIZARTINIB] was 95

====

- Tested on: Fibroblast
- test: Multiplex assay against human fibroblast
- Assay type: toxicity, cell-based
- particulars: 48 h, 1 µM, compound concentration 1 uM, replicate 1
observationType: Population Normal (%)
Answer in %, number only, no unit symbol.

Solved cases below.
[[record]]
compound = "CCCCC(=O)N(Cc1ccc(-c2ccccc2-c2nnn[nH]2)cc1)[C@H](C(=O)O)C(C)C"
subjectoftest = "Fibroblast"
quantityunit = "%"
measured = 93

[[record]]
compound = "Cc1sc2c(c1C)C(c1ccc(Cl)cc1)=N[C@@H](CC(=O)NCCCCCCCCNC(=O)COc1cccc3c1C(=O)N(C1CCC(=O)NC1=O)C3=O)c1nnc(C)n1-2 (stereo partly drawn)"
subjectoftest = "Fibroblast"
quantityunit = "%"
measured = 72

[[record]]
compound = "O=C(CCCc1ccccc1)Nc1nc2ccccc2c(=O)s1"
subjectoftest = "Fibroblast"
quantityunit = "%"
measured = 94

[[record]]
compound = "CN1CCN(c2cc(-c3ccccc3)nc(N)n2)CC1"
subjectoftest = "Fibroblast"
quantityunit = "%"
measured = 97

[[record]]
compound = "COc1cccc2c1c(NS(=O)(=O)c1ccc(Cl)s1)nn2Cc1cccc(CNC(=O)C(C)(C)O)c1"
subjectoftest = "Fibroblast"
quantityunit = "%"
measured = 94


Population Normal (%) on Fibroblast for CN[C@@H](C)C(=O)N[C@H](C(=O)N1CCC[C@H]1C(=O)Nc1snnc1-c1ccccc1)C1CCCCC1 [GDC-0152] is 98

# lookup: CCCCC1=NC2(CCCC2)C(=O)N1Cc1ccc(-c2ccccc2-c2nnn[nH]2)cc1 [IRBESARTAN] on Fibroblast, Population Normal (%) = 96
